Tested on: Influenza A virus
Assay: Antiviral activity against Influenza A virus infected in MDCK cells assessed as inhibition of virus-induced cytopathogenic effect by plaque reduction assay
Type: functional, organism-based
pIC50: −log10 of the molar value.
EXPERIMENTAL_ENDPOINT: pIC50

{"MOLECULE": "C[C@H]1C(=O)O[C@H]2C[C@]3(C)O[C@H]3CCC3=C[C@@H](OC3=O)[C@@H]21", "RESULT_OPERATOR": "<", "OBS_VALUE": 3.44}
{"MOLECULE": "NC(=O)c1ncn([C@@H]2O[C@H](CO)[C@@H](O)[C@H]2O)n1", "RESULT_OPERATOR": "=", "OBS_VALUE": 4.37}
{"MOLECULE": "C[C@H]1C(=O)O[C@H]2C[C@]3(C)O[C@H]3[C@@H]3O[C@@H]3C3=C[C@@H](OC3=O)[C@@H]21 [DIHYDROMIKANOLIDE]", "RESULT_OPERATOR": "=", "OBS_VALUE": 3.85}
{"MOLECULE": "COc1ccc(-c2oc3cc(OC)c(OC)c(O)c3c(=O)c2OS(=O)(=O)O)cc1", "RESULT_OPERATOR": "=", "OBS_VALUE": 4.10}

* * *

Attribute: CC50
Experiment: Cytotoxicity against MDCK cells
Type: cell-based, Canis lupus familiaris
Settings: dog, read-out: TC50 (the source's name)

{"MOLECULE": "COc1ccc(-c2oc3cc(OC)c(OC)c(O)c3c(=O)c2OS(=O)(=O)O)cc1", "RESULT_OPERATOR": "=", "CC50 / µM": 237}
{"MOLECULE": "CC(=O)O[C@H]1C[C@@H]2O[C@@]2(C)C[C@@H]2OC(=O)[C@H](C)[C@H]2[C@H]2C=C1C(=O)O2", "RESULT_OPERATOR": "=", "CC50 / µM": 186}
{"MOLECULE": "CC(C)[C@@H](C)/C=C/[C@@H](C)[C@H]1CC[C@H]2C3=CC[C@H]4C[C@@H](O)CC[C@]4(C)[C@H]3CC[C@]12C", "RESULT_OPERATOR": "=", "CC50 / µM": 405}
{"MOLECULE": "NC(=O)c1ncn([C@@H]2O[C@H](CO)[C@@H](O)[C@H]2O)n1 [RIBAVIRIN]", "RESULT_OPERATOR": ">", "CC50 / µM": 256}
{"MOLECULE": "C[C@H]1C(=O)O[C@H]2C[C@]3(C)O[C@H]3CCC3=C[C@@H](OC3=O)[C@@H]21", "RESULT_OPERATOR": "=", "CC50 / µM": 600}
{"MOLECULE": "C[C@H]1C(=O)O[C@H]2C[C@]3(C)O[C@H]3[C@@H]3O[C@@H]3C3=C[C@@H](OC3=O)[C@@H]21 [DIHYDROMIKANOLIDE]", "RESULT_OPERATOR": "=", "CC50 / µM": 214}
{"MOLECULE": "COc1ccc(-c2oc3cc(OC)c(OC)c(O)c3c(=O)c2O)cc1 [MIKANIN]", "RESULT_OPERATOR": "=", "CC50 / µM": 500}

* * *

Attribute: selectivity ratio
Assay: Therapeutic index, ratio of TC50 for human Hep2 cells to IC50 for Respiratory syncytial virus infected in human Hep2 cells
Type: cell-based, HEp-2
Settings: read-out: TI

{"COMPOUND": "COc1ccc(-c2oc3cc(OC)c(OC)c(O)c3c(=O)c2OS(=O)(=O)O)cc1", "selectivity ratio": 6}
{"COMPOUND": "CC(C)[C@@H](C)/C=C/[C@@H](C)[C@H]1CC[C@H]2C3=CC[C@H]4C[C@@H](O)CC[C@]4(C)[C@H]3CC[C@]12C", "selectivity ratio": 6}
{"COMPOUND": "CC(=O)O[C@H]1C[C@@H]2O[C@@]2(C)C[C@@H]2OC(=O)[C@H](C)[C@H]2[C@H]2C=C1C(=O)O2", "selectivity ratio": 3}
{"COMPOUND": "C[C@H]1C(=O)O[C@H]2C[C@]3(C)O[C@H]3[C@@H]3O[C@@H]3C3=C[C@@H](OC3=O)[C@@H]21 [DIHYDROMIKANOLIDE]", "selectivity ratio": 1.5}
{"COMPOUND": "C[C@H]1C(=O)O[C@H]2C[C@]3(C)O[C@H]3CCC3=C[C@@H](OC3=O)[C@@H]21", "selectivity ratio": 16}
{"COMPOUND": "COc1ccc(-c2oc3cc(OC)c(OC)c(O)c3c(=O)c2O)cc1", "selectivity ratio": 1.5}
